Test System: Voltage-gated potassium channel subunit beta-2 (Rattus norvegicus) (UniProt P62483)
Sequence (P62483 whole entry, looked up): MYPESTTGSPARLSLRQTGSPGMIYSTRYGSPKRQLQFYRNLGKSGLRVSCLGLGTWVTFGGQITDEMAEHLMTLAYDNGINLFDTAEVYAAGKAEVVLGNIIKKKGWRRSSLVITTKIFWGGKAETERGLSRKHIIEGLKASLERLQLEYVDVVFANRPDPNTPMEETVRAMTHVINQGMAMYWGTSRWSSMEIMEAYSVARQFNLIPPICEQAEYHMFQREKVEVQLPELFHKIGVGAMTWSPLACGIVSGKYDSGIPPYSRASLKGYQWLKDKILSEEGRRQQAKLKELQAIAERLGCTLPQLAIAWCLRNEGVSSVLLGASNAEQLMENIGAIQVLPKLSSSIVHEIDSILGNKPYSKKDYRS
Run Description: enhancers of rat Kvbeta2 NADPH turnover – biochemical, NADPH fluorescence, primary screen (AID 623);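 also: fluorescence intensity change per second fitted from 20 to 320 s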
Run Parameters: Recombinant KvBeta, NADPH fluorescence decrease slope, 10 min; at 10 µM; hits give low values
Property Name: NADPH fluorescence slope
One number for each entry.

Solved cases below.
* O=C(Nc1ccncc1)c1cccc(F)c1 | -4.9e-05
* CCCOc1ccccc1NC(=O)c1c(-c2ccccc2)noc1C | -1.4e-05
* O=C(c1ccc2c(c1)OCCO2)C1CCN(C(=O)c2ccc(F)cc2)CC1 | -4.4e-05
* CC(O)CN1C(=O)C(CC(=O)Nc2ccc(Cl)cc2)SC1=Nc1ccccc1 (centres undefined) | -0.000376
* COc1ccc(NC(=O)CSc2nc3c(c(=O)n2-c2ccc(F)cc2)SCC3)cc1 | -1.7e-05
* CCN(CC)C(=O)C1=C(C)Nc2nnnn2C1c1cccnc1 (centres undefined) | 1.1e-05
* CCN(CC)CCN1C(=O)c2oc3ccc(F)cc3c(=O)c2C1c1ccncc1 (centres undefined) | -4.3e-05
* CCOC(=O)c1c(C)[nH]c(C(=O)COC(=O)C2CC2C)c1C (centres undefined) | -5.4e-05

Give NADPH fluorescence slope for each listed item.
1. N#C/C(=C(/O)COC(=O)CCC1CCCCC1)c1nc2ccccc2[nH]1
2. COc1ccc(C(N)=O)cc1N
3. O=C1CC(N2CCN(c3ccc(Cl)c(Cl)c3)CC2)C(=O)N1 (centres undefined)
4. COc1cccc(-n2c(SCC(=O)N3CCCC3)nc3c([nH]c4ccccc43)c2=O)c1
5. c1cc2c(cc1Cn1cnnn1)OCO2

Outgoing:
1: -3.2e-05; 2: 2.7e-05; 3: -4.7e-05; 4: -1.5e-05; 5: -6.9e-05

Could I get NADPH fluorescence slope for every one of these entries?
1. CCn1cc(C(=O)NCCCOC)c(=O)c2cc(S(=O)(=O)N(C)C3CCCCC3)ccc21
2. COc1ccc(CCNC(=O)C2CCN(S(=O)(=O)c3cc(OC)ccc3OC)CC2)cc1
3. COc1ccccc1-n1c(-c2cccnc2)n[nH]c1=S
4. Cc1ccc(-c2nnc(N(C)C(=O)c3ccccn3)s2)cn1
5. O=C(NCCCCNC(=O)c1cccnc1)c1cccnc1
6. Cc1cc(=O)n(C)c(=O)n1CCCCCN1CCCC1
7. CCOc1ccc(OCC)c(NC(=O)C2CCN(c3ncccn3)CC2)c1
8. C=CCn1c(SCC(=O)NCCCC)nc2scc(-c3ccco3)c2c1=O

Outgoing:
1: 5.7e-06; 2: -6.1e-05; 3: -4.1e-06; 4: -4.7e-05; 5: 3.6e-05; 6: -1.1e-05; 7: -5.1e-05; 8: -3.5e-05

Provide NADPH fluorescence slope for all items below, preserving their order.
1. Cc1ccccc1NC(=O)C1CC(=O)N(c2ccccc2F)C1 (centres undefined)
2. CC1(C)CC(=O)CC(=Nc2ccc(C(=O)O)cc2)C1
3. N#Cc1c(/N=C/c2cccs2)sc2c1CCCCC2

Outgoing:
1. -3.8e-05
2. -5.1e-05
3. -2.1e-05
